Target: human JAK1 catalytic kinase (JH1) domain (Homo sapiens (Human), UniProt P23458)
Sequence (P23458 875-1153): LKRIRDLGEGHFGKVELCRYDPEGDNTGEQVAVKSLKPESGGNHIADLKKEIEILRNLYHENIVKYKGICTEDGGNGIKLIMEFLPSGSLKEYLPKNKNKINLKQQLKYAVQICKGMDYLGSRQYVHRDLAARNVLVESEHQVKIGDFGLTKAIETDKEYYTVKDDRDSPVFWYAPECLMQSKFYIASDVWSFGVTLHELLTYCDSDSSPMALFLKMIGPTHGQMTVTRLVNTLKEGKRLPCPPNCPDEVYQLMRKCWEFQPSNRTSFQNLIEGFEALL
Test: ADP-Glo Kinase Assay, recombinant JAK1 catalytic kinase (JH1) domain
Assay type: biochemical
Settings: recombinant JH1 domain 4 nM, 35 μM ATP, JAK3-342 peptide, mean, read-out: JAK1 biochem IC50 (nM) Mean
Description: Compounds of the disclosure were assessed for their ability to inhibit TYK2, JAK1, JAK2, and JAK3 activity. The inhibitory properties of the compounds of the disclosure described herein can be evidenced by testing in any one of the following protocols. The kinase activity of recombinantly generated catalytic kinase (also known as JH1) domain of human JAK1, JAK2, JAK3 and TYK2 were evaluated in a plate-based assay using the ADP-Glo™ Kinase Assay platform. […]
IC50 strictly less than 100 nM = yes. Otherwise no.

The following compounds have reported results that may help.
smilesRecord: Cn1cc(-c2cc3c(N4CC5CCC(C4)N5C(=O)C(C)(F)F)ncnn3c2)cn1
targetDesc: human JAK1 catalytic kinase (JH1) domain (Homo sapiens (Human), UniProt P23458)
labelClass: no

smilesRecord: Cn1cc(-c2cc3c(N4CC5CCC(C4)N5C(=O)[C@@H]4C[C@H]4F)ncnn3c2)cc(F)c1=O
targetDesc: human JAK1 catalytic kinase (JH1) domain (Homo sapiens (Human), UniProt P23458)
labelClass: no

smilesRecord: O=C([C@@H]1C[C@H]1F)N1C2CCC1CN(c1ccnn3cc(-c4ccnc(N5CC(F)(F)C5)c4)cc13)C2
targetDesc: human JAK1 catalytic kinase (JH1) domain (Homo sapiens (Human), UniProt P23458)
labelClass: no

smilesRecord: O=C([C@@H]1CC1(F)F)N1C2CCC1CN(c1ncnc3[nH]c(-c4cnn(C(F)F)c4)cc13)C2
targetDesc: human JAK1 catalytic kinase (JH1) domain (Homo sapiens (Human), UniProt P23458)
labelClass: no

smilesRecord: COc1cc(-n2cc3nccc(N4CC5CCC(C4)N5C(=O)[C@@H]4C[C@H]4F)c3n2)ccn1
targetDesc: human JAK1 catalytic kinase (JH1) domain (Homo sapiens (Human), UniProt P23458)
labelClass: yes

smilesRecord: O=C(C1CC1)N1C2CCC1CN(c1ncnn3cc(-c4cnn(CC5COC5)c4)cc13)C2
targetDesc: human JAK1 catalytic kinase (JH1) domain (Homo sapiens (Human), UniProt P23458)
labelClass: no

smilesRecord: COc1cnc(-c2cc3c(N4CC5CCC(C4)N5C(=O)[C@@H]4C[C@H]4F)ccnn3c2)cn1
targetDesc: human JAK1 catalytic kinase (JH1) domain (Homo sapiens (Human), UniProt P23458)
labelClass: no

smilesRecord: O=C([C@@H]1C[C@H]1F)N1C2CCC1CN(c1ncnc3[nH]c(-c4cnn(C(F)F)c4)cc13)C2
targetDesc: human JAK1 catalytic kinase (JH1) domain (Homo sapiens (Human), UniProt P23458)
labelClass: yes

Problem: Below 100 nM on IC50? Entry `Cn1cc(-c2cc3c(N4CC5CCC(C4)N5C(=O)CC#N)ccnn3c2)cn1`
Result: no

Problem: Below 100 nM on IC50? Entry `CCn1cc(-c2cc3c(N4CC5CCC(C4)N5C(=O)C4CC4)ncnn3c2)cn1`
Result: no

Problem: Below 100 nM on IC50? Entry `O=C(C1CC1)N1C2CCC1CN(c1ccnc3[nH]c(-c4cnn(C(F)F)c4)nc13)C2`
Result: yes

Problem: Below 100 nM on IC50? Entry `O=C([C@@H]1C[C@H]1F)N1C2CCC1CN(c1ccnn3cc(-c4ccc(F)nc4)cc13)C2`
Result: yes
